- System: NIH3T3 cells
- test.method.notes: MTT assay, cytotoxicity in normal cells
- Assay type: cell-based
- condition.notes: normal cells (NIH3T3), result in words
measured.quantity: cytotoxicity

compound	measured
Cc1c(CCO)c(CO)cc2c1C(=O)[C@@H](C)C2 [Compound 4, (2S)-pterosin P]	little cytotoxicity
Cc1cc2c(c(C)c1CCO)C(=O)[C@H](C)C2 [Compound 2, (2R)-pterosin B]	little cytotoxicity
Cc1cc2c(c(C)c1CCO)C(=O)C(C)(C)[C@@H]2O [Compound 5, (3R)-pterosin D]	little cytotoxicity
